The measured values listed here are drawn from ChEMBL document CHEMBL4673334.

Tested on: Trypanosoma cruzi
Test: Antitrypanosomal activity against Trypanosoma cruzi MHOM/Pe/2011/Arequipa(DTU V) epimastigote form assessed as parasite growth inhibition incubated for 48 hrs by resazurin dye based assay
Assay type: functional, organism-based
So basically, if IC50 comes in under 50 µM it's fulfilled, and if it's 50 µM or more it's not fulfilled.

Request: I'd appreciate it if you could check whether CC(C)C1=CC2=C[C@@H]3OC(=O)[C@]4(C)CCC=C(C2=C(O)C1=O)[C@]34C has IC50 smaller than 50 µM.
Response: not fulfilled

Request: CC(C)c1cc2c(cc1O)[C@@]1(C)CCCC(C)(C)[C@@]1(O)OC2=O ?
Response: fulfilled

Request: COC(=O)[C@]1(C)CCC[C@]2(C)C3=C(C=C[C@@H]12)C(=O)C(C(C)C)=CC3=O ?
Response: fulfilled

Request: CC(C)c1cc(C=O)c([C@@]2(C)CCCC(C)(C)C2=O)cc1O ?
Response: fulfilled

Request: CC(C)c1cc2c(cc1O)[C@@]1(C)CCC[C@@]3(C)CO[C@@H]([C@@H]2O)[C@@H]31 ?
Response: fulfilled

Request: CC(C)c1cc2c(cc1O)[C@@]1(C)CCC[C@@](C)(C=O)[C@@H]1CC2 ?
Response: not fulfilled

Request: CC(C)C1=CC(=O)C2=C(C=C[C@H]3C(C)(C)CCC[C@]23C)C1=O ?
Response: fulfilled

Request: COC(=O)[C@]1(C)CCC[C@]2(C)c3ccc(C(C)C)c(O)c3CC[C@@H]12 ?
Response: not fulfilled

----------
Consider the following compounds; for each one, report its pIC50.
Test system: Trypanosoma cruzi
Assay: Antitrypanosomal activity against Trypanosoma cruzi MHOM/Pe/2011/Arequipa(DTU V) amastigote form infected in Vero cells assessed as parasite growth inhibition incubated for 72 hrs by Giemsa-staining based assay
Format: functional, organism-based
FYI, pIC50 means -log10 of a concentration in mol per litre.

Request: Query: pIC50; subject: COC(=O)[C@]1(C)CCC[C@]2(C)C3=C(C=C[C@@H]12)C(=O)C(C(C)C)=CC3=O
Response: 5.32

Request: CC(C)c1cc(C=O)c([C@@]2(C)CCCC(C)(C)C2=O)cc1O ?
Response: 5.04

----------
Assay: Selectivity index, ratio of IC50 for cytotoxicity against African green monkey Vero cells to IC50 for antitrypanosomal activity against Trypanosoma cruzi MHOM/Pe/2011/Arequipa(DTU V) blood stream trypomastigote form
Assay type: toxicity, cell-based
Details: read-out: Ratio IC50
Consider the following compounds; for each one, report its selectivity ratio.

Request: Query: selectivity ratio; subject: CC(C)c1cc(C=O)c([C@@]2(C)CCCC(C)(C)C2=O)cc1O
Response: > 40

Request: COC(=O)[C@]1(C)CCC[C@]2(C)C3=C(C=C[C@@H]12)C(=O)C(C(C)C)=CC3=O ?
Response: > 40

----------
Assay: Selectivity index, ratio of IC50 for cytotoxicity against African green monkey Vero cells to IC50 for antitrypanosomal activity against Trypanosoma cruzi TINF/CH/1956/Tulahuen (DTU VI) amastigote form infected in Vero cells
Type: toxicity, cell-based
Conditions: read-out: Ratio IC50
Consider the following molecules; for each one, report its selectivity ratio.

Request: Query: selectivity ratio; subject: COC(=O)[C@]1(C)CCC[C@]2(C)C3=C(C=C[C@@H]12)C(=O)C(C(C)C)=CC3=O
Response: > 40

Request: CC(C)c1cc(C=O)c([C@@]2(C)CCCC(C)(C)C2=O)cc1O ?
Response: > 40

----------
Assay: Selectivity index, ratio of IC50 for cytotoxicity against African green monkey Vero cells to IC50 for antitrypanosomal activity against Trypanosoma cruzi IRHOD/CO/2008/SN3 (DTU I) epimastigote form
Type: toxicity, cell-based
Details: read-out: Ratio IC50
parameter measured: selectivity ratio

Request: Query: selectivity ratio; subject: CC(C)c1cc(C=O)c([C@@]2(C)CCCC(C)(C)C2=O)cc1O
Response: > 15

Request: COC(=O)[C@]1(C)CCC[C@]2(C)C3=C(C=C[C@@H]12)C(=O)C(C(C)C)=CC3=O ?
Response: > 15

----------
Consider the following compounds; for each one, report its selectivity ratio.
Assay: Selectivity index, ratio of IC50 for cytotoxicity against African green monkey Vero cells to IC50 for antitrypanosomal activity against Trypanosoma cruzi IRHOD/CO/2008/SN3 (DTU I) blood stream trypomastigote form
Format: toxicity, cell-based
Conditions: read-out: Ratio IC50

Request: Query: selectivity ratio; subject: CC(C)c1cc(C=O)c([C@@]2(C)CCCC(C)(C)C2=O)cc1O
Response: > 40

Request: COC(=O)[C@]1(C)CCC[C@]2(C)C3=C(C=C[C@@H]12)C(=O)C(C(C)C)=CC3=O ?
Response: > 40

----------
Assay: Selectivity index, ratio of IC50 for cytotoxicity against African green monkey Vero cells to IC50 for antitrypanosomal activity against Trypanosoma cruzi MHOM/Pe/2011/Arequipa(DTU V) amastigote form infected in Vero cells
Format: toxicity, cell-based
Conditions: read-out: Ratio IC50
parameter measured: selectivity ratio

Request: Query: selectivity ratio; subject: COC(=O)[C@]1(C)CCC[C@]2(C)C3=C(C=C[C@@H]12)C(=O)C(C(C)C)=CC3=O
Response: > 40

Request: CC(C)c1cc(C=O)c([C@@]2(C)CCCC(C)(C)C2=O)cc1O ?
Response: > 40
